Where do the numbers come from? From patent US20250345350A1.

experimentalDetails: PS and metabolites in proximal and distal half of the sciatic nerve (Example 25)
Assay type: in vivo, mouse
measurementParameters: mouse, in vivo, 8 % PS ointment, 3×/d, mice with paclitaxel-induced PN, PS 8% ointment 3x/d for 2 wks, 30 min after last dose; read-out: Distal half of sciatic nerve, mean ± SEM
measuredAttribute: concentration at 30 min (µM)
Please state the figure in µM; there is no need to write the unit.

Task: I'd like to know its concentration at 30 min. The molecule in question is CCOP(=O)(OCC)OCCCCOC(=O)CC1=C(C)/C(=C/c2ccc([S+](C)[O-])cc2)c2ccc(F)cc21 (stereo not shown)
Result: 17

###

experimentalDetails: Pharmacokinetics and biodistribution after 3% PS gel on outer surface of eyelid (Example 26)
Format: in vivo, rabbit
measurementParameters: male, New Zealand White, rabbit, topical; cornea, 8 h; rabbits, 3% PS gel on outer surface of upper eyelids; read-out: Amount in tissue, Mean ± SEM
measuredAttribute: concentration at 8 h (nM)
Please state the figure in nM; there is no need to write the unit.

| compound | resultValue |
| --- | --- |
| CC1=C(CC(=O)O)c2cc(F)ccc2/C1=C\c1ccc([S+](C)[O-])cc1 (centres unmarked) [sulindac] | 200 |

Please turn your attention to the following entry.
Task: I'd like to know its concentration at 8 h. The compound in question is CCOP(=O)(OCC)OCCCCOC(=O)CC1=C(C)/C(=C/c2ccc([S+](C)[O-])cc2)c2ccc(F)cc21 (centres unmarked) [PS, phosphosulindac]
Result: 1100

###

experimentalDetails: Pharmacokinetics and biodistribution after 3% PS gel on outer surface of eyelid (Example 26)
Format: in vivo, rabbit
measurementParameters: male, New Zealand White, rabbit, topical; cornea, 24 h; rabbits, 3% PS gel on outer surface of upper eyelids; read-out: Amount in tissue, Mean ± SEM
measuredAttribute: concentration at 24 h
Answer with the number, then the unit.

| compound | concentration at 24 h |
| --- | --- |
| CC1=C(CC(=O)O)c2cc(F)ccc2/C1=C\c1ccc([S+](C)[O-])cc1 (centres unmarked) [sulindac] | 0 nM |

Please turn your attention to the following entry.
Task: I'd like to know its concentration at 24 h. The compound in question is CCOP(=O)(OCC)OCCCCOC(=O)CC1=C(C)/C(=C/c2ccc([S+](C)[O-])cc2)c2ccc(F)cc21 (centres unmarked) [PS, phosphosulindac]
Result: 0 nM

###

experimentalDetails: Pharmacokinetics and biodistribution after 3% PS gel on outer surface of eyelid (Example 26)
Assay type: in vivo, rabbit
measurementParameters: male, New Zealand White, rabbit, topical; vitreous, 1 h; rabbits, 3% PS gel on outer surface of upper eyelids; read-out: Amount in tissue, Mean ± SEM
Experimental: The pharmacokinetics and biodistribution of 3% PS gel applied to the outer surface of both upper eyelids was studies in male New Zealand White rabbits. Eyelid and tissues of the globe were dissected and frozen quickly in liquid nitrogen until the levels of PS and its metabolites were determined by HPLC as described Xie et al. (Br J Pharmacol (2012);165:2152-66).
concentration at 1 h overview
Answer with the number, then the unit.

| molecule | resultValue |
| --- | --- |
| CC1=C(CC(=O)O)c2cc(F)ccc2/C1=C\c1ccc([S+](C)[O-])cc1 (centres unmarked) [sulindac] | 0 µM |

Please turn your attention to the following entry.
Task: I'd like to know its concentration at 1 h. The molecule in question is CCOP(=O)(OCC)OCCCCOC(=O)CC1=C(C)/C(=C/c2ccc([S+](C)[O-])cc2)c2ccc(F)cc21 (centres unmarked) [PS, phosphosulindac]
Result: 0 µM

###

experimentalDetails: Pharmacokinetics and biodistribution after topical PS 8% ointment to hind paws (Example 25)
Type: in vivo, mouse
measurementParameters: mouse, in vivo, topical or ocular, 50 μl per paw of PS 8% ointment, DRG (dorsal root ganglia); normal mice, topical PS 8% ointment to hind paws; read-out: Cmax, mean ± SEM
measuredAttribute: Cmax
Answer with the number, then the unit.

Task: I'd like to know its Cmax. The compound in question is CCOP(=O)(OCC)OCCCCOC(=O)CC1=C(C)/C(=C/c2ccc([S+](C)[O-])cc2)c2ccc(F)cc21 (stereo not shown)
Result: 300 nM

###

experimentalDetails: Pharmacokinetics and biodistribution after 3% PS gel on outer surface of eyelid (Example 26)
Format: in vivo, rabbit
measurementParameters: male, New Zealand White, rabbit, topical; eyelid, 8 h; rabbits, 3% PS gel on outer surface of upper eyelids; read-out: Amount in tissue, Mean ± SEM
measuredAttribute: concentration at 8 h (nM)
Please state the figure in nM; there is no need to write the unit.

| molecule | readingUnit | concentration at 8 h |
| --- | --- | --- |
| CCOP(=O)(OCC)OCCCCOC(=O)CC1=C(C)/C(=C/c2ccc([S+](C)[O-])cc2)c2ccc(F)cc21 (centres unmarked) | nM | 200 |

Please turn your attention to the following entry.
Task: I'd like to know its concentration at 8 h. The molecule in question is CC1=C(CC(=O)O)c2cc(F)ccc2/C1=C\c1ccc([S+](C)[O-])cc1 (centres unmarked)
Result: 0

###

experimentalDetails: Pharmacokinetics and biodistribution after 3% PS gel on outer surface of eyelid (Example 26)
Assay type: in vivo, rabbit
measurementParameters: male, New Zealand White, rabbit, topical; AH (aqueous humor), 1 h; rabbits, 3% PS gel on outer surface of upper eyelids; read-out: Amount in tissue, Mean ± SEM
measuredAttribute: concentration at 1 h (nM)
Please state the figure in nM; there is no need to write the unit.

| molecule | readingUnit | concentration at 1 h |
| --- | --- | --- |
| CC1=C(CC(=O)O)c2cc(F)ccc2/C1=C\c1ccc([S+](C)[O-])cc1 (centres unmarked) | nM | 0 |

Please turn your attention to the following entry.
Task: I'd like to know its concentration at 1 h. The molecule in question is CCOP(=O)(OCC)OCCCCOC(=O)CC1=C(C)/C(=C/c2ccc([S+](C)[O-])cc2)c2ccc(F)cc21 (centres unmarked)
Result: 0

###

experimentalDetails: PS and metabolites in proximal and distal half of the sciatic nerve (Example 25)
Assay type: in vivo, mouse
measurementParameters: mouse, in vivo, 8 % PS ointment, 3×/d, mice with paclitaxel-induced PN, PS 8% ointment 3x/d for 2 wks, 30 min after last dose; read-out: Proximal half of sciatic nerve, μM, mean ± SEM
measuredAttribute: concentration at 30 min (µM)
Please state the figure in µM; there is no need to write the unit.

Task: I'd like to know its concentration at 30 min. The molecule in question is CCOP(=O)(OCC)OCCCCOC(=O)CC1=C(C)/C(=C/c2ccc([S+](C)[O-])cc2)c2ccc(F)cc21 (stereo not shown)
Result: 0.9

###

experimentalDetails: Pharmacokinetics and biodistribution after topical PS 8% ointment to hind paws (Example 25)
Assay type: in vivo, mouse
measurementParameters: mouse, in vivo, topical or ocular, 50 μl per paw of PS 8% ointment, paw muscle; normal mice, topical PS 8% ointment to hind paws
measuredAttribute: half-life (h)
Please state the figure in h; there is no need to write the unit.

Task: I'd like to know its half-life. The compound in question is CCOP(=O)(OCC)OCCCCOC(=O)CC1=C(C)/C(=C/c2ccc([S+](C)[O-])cc2)c2ccc(F)cc21 (stereo not shown)
Result: 11.4

###

experimentalDetails: Pharmacokinetics and biodistribution after 3% PS gel on outer surface of eyelid (Example 26)
Assay type: in vivo, rabbit
measurementParameters: male, New Zealand White, rabbit, topical; vitreous, 0.5 h; rabbits, 3% PS gel on outer surface of upper eyelids; read-out: Amount in tissue, Mean ± SEM
concentration at 0.5 h overview
Please state the figure in nM; there is no need to write the unit.

| compound | readingUnit | concentration at 0.5 h |
| --- | --- | --- |
| CC1=C(CC(=O)O)c2cc(F)ccc2/C1=C\c1ccc([S+](C)[O-])cc1 (centres unmarked) | nM | 0 |

Task: I'd like to know its concentration at 0.5 h. The compound in question is CCOP(=O)(OCC)OCCCCOC(=O)CC1=C(C)/C(=C/c2ccc([S+](C)[O-])cc2)c2ccc(F)cc21 (centres unmarked)
Result: 0

###

experimentalDetails: Pharmacokinetics and biodistribution after 3% PS gel on outer surface of eyelid (Example 26)
Type: in vivo, rabbit
measurementParameters: male, New Zealand White, rabbit, topical or ocular; conjunctiva; rabbits, 3% PS gel on outer surface of upper eyelids; read-out: TMax
measuredAttribute: Tmax (h)
Please state the figure in h; there is no need to write the unit.

Task: I'd like to know its Tmax. The molecule in question is CC1=C(CC(=O)O)c2cc(F)ccc2/C1=C\c1ccc([S+](C)[O-])cc1 (stereo not shown)
Result: 8

###

experimentalDetails: Pharmacokinetics and biodistribution after topical PS 8% ointment to hind paws (Example 25)
Format: in vivo, mouse
measurementParameters: mouse, in vivo, topical or ocular, 50 μl per paw of PS 8% ointment, DRG (dorsal root ganglia); normal mice, topical PS 8% ointment to hind paws; read-out: AUC0-24 h
measuredAttribute: AUC(0-t) (µM·h)
Please state the figure in µM·h; there is no need to write the unit.

Task: I'd like to know its AUC(0-t). The molecule in question is CCOP(=O)(OCC)OCCCCOC(=O)CC1=C(C)/C(=C/c2ccc([S+](C)[O-])cc2)c2ccc(F)cc21 (stereo not shown)
Result: 4.5
